tested on: B. subtilis DBM 3006; assay type: cell-based, Bacillus subtilis; conditions: DBM 3006, 25 h
Residues, ends and D or L forms follow the SMILES beside them. *: point of attachment. Lithocholoyl = C[C@H](CCC(=O)*)[C@H]1CC[C@H]2[C@@H]3CC[C@@H]4C[C@H](O)CC[C@]4(C)[C@H]3CC[C@]12C; Palmitoyl = CCCCCCCCCCCCCCCC(=O)*
Recorded IC50 for the following compounds
Enter your answer as a number in µg/mL; do not include the unit.

Example entries and their recorded answers appear below.
compound	target.or.test.system	reported.property	test.result
CCCCCCCCCCCCCCCC(=O)NCC(=O)N[C@H](C(=O)N[C@@H](CC(C)C)C(=O)N[C@@H](CCCCN)C(=O)N[C@@H](CCCNC(=N)N)C(=O)N[C@@H](C)C(N)=O)C(C)C [SHP-3.2, PAL-GVLKRA-NH2] (Palmitoyl-GVLKRA-NH2)	B. subtilis DBM 3006	IC50	50.0
CC(C)C[C@H](NC(=O)CC[C@@H](C)[C@H]1CC[C@H]2[C@@H]3CC[C@@H]4C[C@H](O)CC[C@]4(C)[C@H]3CC[C@]12C)C(=O)N[C@H](C(=O)N[C@@H](CCCCN)C(=O)NCC(=O)N[C@@H](C)C(=O)N[C@@H](CCCNC(=N)N)C(N)=O)C(C)C [SHP-2.3, LCA-LVKGAR-NH2] (Lithocholoyl-LVKGAR-NH2)	B. subtilis DBM 3006	IC50	20.0
CC(C)C[C@H](NC(=O)CC[C@@H](C)[C@H]1CC[C@H]2[C@@H]3CC[C@@H]4C[C@H](O)CC[C@]4(C)[C@H]3CC[C@]12C)C(=O)N[C@H](C(=O)N[C@@H](CCCCN)C(=O)N[C@@H](CCCNC(=N)N)C(=O)N[C@@H](C)C(=O)NCC(N)=O)C(C)C [SHP-1.3, LCA-LVKRAG-NH2] (Lithocholoyl-LVKRAG-NH2)	B. subtilis DBM 3006	IC50	40.0
CCCCCCCCCCCCCCCC(=O)N[C@@H](CC(C)C)C(=O)N[C@H](C(=O)N[C@@H](CCCCN)C(=O)N[C@@H](CCCNC(=N)N)C(=O)N[C@@H](C)C(=O)NCC(N)=O)C(C)C [SHP-1.2, PAL-LVKRAG-NH2] (Palmitoyl-LVKRAG-NH2)	B. subtilis DBM 3006	IC50	25.0

Here is the next item to consider.
Let me check: CC(C)C[C@H](NC(=O)[C@@H](NC(=O)CNC(=O)CC[C@@H](C)[C@H]1CC[C@H]2[C@@H]3CC[C@@H]4C[C@H](O)CC[C@]4(C)[C@H]3CC[C@]12C)C(C)C)C(=O)N[C@@H](CCCCN)C(=O)N[C@@H](CCCNC(=N)N)C(=O)N[C@@H](C)C(N)=O [SHP-3.3, LCA-GVLKRA-NH2] (Lithocholoyl-GVLKRA-NH2) , system B. subtilis DBM 3006, measured IC50 is 50.0

* * *

system: Staph. aureus MRSA1; assay type: cell-based, Staphylococcus aureus; details: 24 h
Residues, ends and D or L forms follow the SMILES beside them. *: point of attachment. Lithocholoyl = C[C@H](CCC(=O)*)[C@H]1CC[C@H]2[C@@H]3CC[C@@H]4C[C@H](O)CC[C@]4(C)[C@H]3CC[C@]12C; Palmitoyl = CCCCCCCCCCCCCCCC(=O)*
reported.property: MIC (µg/mL)
Enter your answer as a number in µg/mL; do not include the unit.

molecule	measurement.unit	MIC
CCCCCCCCCCCCCCCC(=O)N[C@@H](CC(C)C)C(=O)N[C@H](C(=O)N[C@@H](CCCCN)C(=O)NCC(=O)N[C@@H](C)C(=O)N[C@@H](CCCNC(=N)N)C(N)=O)C(C)C [SHP-2.2, PAL-LVKGAR-NH2] (Palmitoyl-LVKGAR-NH2)	µg/mL	14.9
CC(C)C[C@H](NC(=O)CC[C@@H](C)[C@H]1CC[C@H]2[C@@H]3CC[C@@H]4C[C@H](O)CC[C@]4(C)[C@H]3CC[C@]12C)C(=O)N[C@H](C(=O)N[C@@H](CCCCN)C(=O)NCC(=O)N[C@@H](C)C(=O)N[C@@H](CCCNC(=N)N)C(N)=O)C(C)C [SHP-2.3, LCA-LVKGAR-NH2] (Lithocholoyl-LVKGAR-NH2)	µg/mL	25.1

Here is the next item to consider.
Briefly, MIC measured for CC(C)C[C@H](NC(=O)CC[C@@H](C)[C@H]1CC[C@H]2[C@@H]3CC[C@@H]4C[C@H](O)CC[C@]4(C)[C@H]3CC[C@]12C)C(=O)N[C@H](C(=O)N[C@@H](CCCCN)C(=O)N[C@@H](CCCNC(=N)N)C(=O)N[C@@H](C)C(=O)NCC(N)=O)C(C)C [SHP-1.3, LCA-LVKRAG-NH2] (Lithocholoyl-LVKRAG-NH2) : 30.6

* * *

test system: HEK293T; test: Cytotoxicity assay (xCELLigence impedance); type: cell-based, human; settings: c 100 µg/mL, 24 h exposure
Residues, ends and D or L forms follow the SMILES beside them. *: point of attachment. Lithocholoyl = C[C@H](CCC(=O)*)[C@H]1CC[C@H]2[C@@H]3CC[C@@H]4C[C@H](O)CC[C@]4(C)[C@H]3CC[C@]12C; Palmitoyl = CCCCCCCCCCCCCCCC(=O)*
Recorded % inhibition for the following compounds
Enter your answer as a number in %; do not include the unit.

Example entries and their recorded answers appear below.
compound	% inhibition (%)
CCCCCCCCCCCCCCCC(=O)N[C@@H](CC(C)C)C(=O)N[C@H](C(=O)N[C@@H](CCCCN)C(=O)NCC(=O)N[C@@H](C)C(=O)N[C@@H](CCCNC(=N)N)C(N)=O)C(C)C [SHP-2.2, PAL-LVKGAR-NH2] (Palmitoyl-LVKGAR-NH2)	19.3
CCCCCCCCCCCCCCCC(=O)NCC(=O)N[C@H](C(=O)N[C@@H](CC(C)C)C(=O)N[C@@H](CCCCN)C(=O)N[C@@H](CCCNC(=N)N)C(=O)N[C@@H](C)C(N)=O)C(C)C [SHP-3.2, PAL-GVLKRA-NH2] (Palmitoyl-GVLKRA-NH2)	29.6

Let me check: CC(C)C[C@H](NC(=O)CC[C@@H](C)[C@H]1CC[C@H]2[C@@H]3CC[C@@H]4C[C@H](O)CC[C@]4(C)[C@H]3CC[C@]12C)C(=O)N[C@H](C(=O)N[C@@H](CCCCN)C(=O)NCC(=O)N[C@@H](C)C(=O)N[C@@H](CCCNC(=N)N)C(N)=O)C(C)C [SHP-2.3, LCA-LVKGAR-NH2] (Lithocholoyl-LVKGAR-NH2) , system HEK293T, measured % inhibition is 42.2

Data provenance is paper PMC11003925.
